# test summary: Therapeutic index, ratio of inhibition of HEK293T cells to MIC for Mycobacterium tuberculosis H37Rv ATCC 27294
# Format: cell-based, HEK-293T
# study conditions: human, read-out: TI
attribute measured: selectivity ratio

query: Output measured selectivity ratio for this item: "COc1ccc(-c2cc3c(ccc4oc5ccccc5c43)o2)c(C)c1"
result: > 10

* * *

# test summary: Cytotoxicity against HEK293T cells at 50 ug/ml after 72 hrs by MTT assay
# Assay type: cell-based, HEK-293T
# study conditions: human, read-out: INH
Outcome label depends on cytotoxicity at 72 h, 50 ug/ml relative to 30%: at/above gives Criterion met, below gives Criterion not met.

query: Could you please find out whether "CCCCCc1ccc(-c2cc3c(ccc4oc5ccccc5c43)o2)cc1" has cytotoxicity at 72 h, 50 ug/ml that meets 30% or exceeds it?
result: Criterion met

Recorded values, source ChEMBL document CHEMBL2424559.
